Reported selectivity ratio by item:
Experiment: Selectivity index, ratio of TC50 for MDCK cells to IC50 for influenza A virus H3N2
Assay type: toxicity, cell-based
Settings: dog, read-out: Selectivity Index
Lab note: record the figure alone, no unit after it.

Completed entries (count: 6):
C=C(C(=O)OCCCCBr)[C@@H]1CC[C@H](C)[C@@H]2CC(=O)C(C)=C2C1
5.6
NC(=O)c1ncn([C@@H]2O[C@H](CO)[C@@H](O)[C@H]2O)n1 [RIBAVIRIN]
329
C=C(C(=O)OCCCCCCCCCCN1CCN(c2ccccc2)CC1)[C@@H]1CC[C@H](C)[C@@H]2CC(=O)C(C)=C2C1
4.9
C=C(C(=O)OCCCCCCCCCCN1CCN(C)CC1)[C@@H]1CC[C@H](C)[C@@H]2CC(=O)C(C)=C2C1
34
C=C(C(=O)OCCCn1cncn1)[C@@H]1CC[C@H](C)[C@@H]2CC(=O)C(C)=C2C1
9
C=C(C(=O)OCCCCCCCCCCn1cncn1)[C@@H]1CC[C@H](C)[C@@H]2CC(=O)C(C)=C2C1
28.1

Notebook: CCOC(=O)C1=C[C@@H](OC(CC)CC)[C@H](NC(C)=O)[C@@H](N)C1 [OSELTAMIVIR PHOSPHATE] , selectivity ratio read as 1140

Looking up C=C(C(=O)OCCCCCCCCCCBr)[C@@H]1CC[C@H](C)[C@@H]2CC(=O)C(C)=C2C1 , I see its selectivity ratio listed as 8.4

###

Experiment: Selectivity index, ratio of TC50 for MDCK cells to IC50 for influenza A virus H1N1
Assay type: toxicity, cell-based
Details: dog, read-out: Selectivity Index
# Lookup of reported selectivity ratio keyed by entry
Just the number, please.

In the examples that follow, each entry is paired with its recorded selectivity ratio.
C=C(C(=O)OCCCCN1CCN(c2ccccc2)CC1)[C@@H]1CC[C@H](C)[C@@H]2CC(=O)C(C)=C2C1
5.2
C=C(C(=O)OCCn1cncn1)[C@@H]1CC[C@H](C)[C@@H]2CC(=O)C(C)=C2C1
2.68
C=C(C(=O)OCCCCn1cncn1)[C@@H]1CC[C@H](C)[C@@H]2CC(=O)C(C)=C2C1
6.7

Now turn to the next compound.
The reported value for C=C(C(=O)OCCCCCCCCCCN1CCN(C)CC1)[C@@H]1CC[C@H](C)[C@@H]2CC(=O)C(C)=C2C1 in terms of selectivity ratio is 47.6
